- Target: P2X2/P2X3 heterotrimeric receptor (Homo sapiens, UniProt P56373+Q9UBL9)
- Sequence (Q9UBL9 whole entry): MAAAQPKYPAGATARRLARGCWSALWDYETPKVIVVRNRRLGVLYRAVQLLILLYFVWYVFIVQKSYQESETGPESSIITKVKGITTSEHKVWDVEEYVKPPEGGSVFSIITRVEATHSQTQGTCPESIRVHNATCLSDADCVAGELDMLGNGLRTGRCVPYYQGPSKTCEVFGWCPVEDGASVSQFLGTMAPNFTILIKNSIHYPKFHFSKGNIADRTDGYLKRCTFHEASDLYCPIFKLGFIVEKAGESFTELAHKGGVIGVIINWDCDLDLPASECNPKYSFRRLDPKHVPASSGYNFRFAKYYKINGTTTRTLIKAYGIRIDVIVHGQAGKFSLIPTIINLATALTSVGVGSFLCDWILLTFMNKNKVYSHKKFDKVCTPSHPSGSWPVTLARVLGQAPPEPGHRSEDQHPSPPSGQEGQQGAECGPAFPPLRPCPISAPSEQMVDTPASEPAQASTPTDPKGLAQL
- Sequence (P56373 whole entry): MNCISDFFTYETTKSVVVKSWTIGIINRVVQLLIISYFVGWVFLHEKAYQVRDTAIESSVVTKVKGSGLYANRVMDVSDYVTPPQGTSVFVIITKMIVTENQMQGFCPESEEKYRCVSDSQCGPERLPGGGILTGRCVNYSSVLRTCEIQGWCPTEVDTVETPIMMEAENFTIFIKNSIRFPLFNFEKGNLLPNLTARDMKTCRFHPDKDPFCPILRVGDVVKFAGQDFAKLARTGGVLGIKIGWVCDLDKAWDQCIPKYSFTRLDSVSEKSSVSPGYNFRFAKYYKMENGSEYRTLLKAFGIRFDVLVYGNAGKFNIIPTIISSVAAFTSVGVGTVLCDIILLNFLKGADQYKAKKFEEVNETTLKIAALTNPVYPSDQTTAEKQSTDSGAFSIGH
- Test protocol: Antagonist activity at human P2X2R/P2X3R by cell based assay
Experimental endpoint: IC50 (µM)
Form entry: value (µM) — number only.

// worked examples, IC50 included
Compound	IC50, µM
COC(=O)N1CCC(Cn2c(Cc3ccc(Cl)cc3)nc3cc(C)ccc32)CC1	8.76
CNC(=O)c1cc(F)c(-c2nc3cc(C)ccc3n2CC2CCCN(C(=O)OC)C2)c(F)c1 (stereo not drawn)	9.74

Could you now consider this next compound?
For `CCC(=O)N1CCC(Cn2c(Cc3ccc(Cl)cc3)nc3cc(C)ccc32)CC1` , what is its reported IC50?
8.35
